read-out: Macrophage colony-stimulating factor (MCSF), CSF1 (gene 1435); experiment: BSK_CASM3C_MCSF: BioMAP Diversity Plus: CASM3C Assay for Macrophage colony-stimulating factor (MCSF) Biomarker Activity (AID 2283044); conditions: primary human coronary artery smooth muscle cells; actives raise or lower the signal;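 also: M-CSF protein amount quantified by ELISA after 24 h exposure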
Calls of active or inactive are those of the source. The calls were made as follows: active = hit-call score of the fitted dose curve at least 0.9, where 1 is the maximum; inactive = score below 0.9.
endpoint: AC50

# example entries with known answers
compound	recorded_result
Cc1ccc(N)cc1O	inactive
CC(C)=CCCC(C)=CC=O	inactive
CCCCC(CC)COC(=O)c1ccc(C(=O)OCC(CC)CCCC)cc1 (stereo unspecified)	inactive
Fc1ccccc1[C@@H](F)COC1CCC(Nc2ncnc3[nH]ncc23)CC1 (stereo partly specified)	inactive
CC(O)CN(CCN(CC(C)O)CC(C)O)CC(C)O (stereo unspecified)	inactive

## Input May I ask what AC50 has been recorded for `COc1cccc(-c2ccc(/C=C\CN3CCCCCC3)cc2Cl)c1` ?
## Output 29.4 µM (active)

## Input Tell me the measured AC50 of `C=CCCCCCCCCC(=O)O` , please.
## Output inactive

## Input Need AC50 of `O=C(CCCCCCCCc1cccnc1)N1CCC(C=C(c2ccccc2)c2ccccc2)CC1` , thanks.
## Output 38 µM (active)

## Input Entry `CCCCCCCCO` : reported AC50 = ?
## Output inactive

## Input Fill blank: measured AC50 of the compound `CC(=O)OC[C@H]1O[C@@](COC(C)=O)(O[C@H]2O[C@H](COC(C)=O)[C@@H](OC(C)=O)[C@H](OC(C)=O)[C@H]2OC(C)=O)[C@@H](OC(C)=O)[C@@H]1OC(C)=O` is ____.
## Output inactive

## Input Query: AC50; subject: `CC[C@H]1OC(=O)[C@H](C)[C@@H](O[C@H]2C[C@@](C)(OC)[C@@H](O)[C@H](C)O2)[C@H](C)[C@@H](O[C@@H]2O[C@H](C)C[C@H](N(C)C)[C@H]2O)[C@](C)(O)C[C@@H](C)C(=O)[C@H](C)[C@@H](O)[C@]1(C)O`
## Output inactive
